system: Mycobacterium tuberculosis; test: Antibacterial activity against Mycobacterium bovis BCG transfected with pMV261:Mt-dprE2 assessed as bacterial growth inhibition incubated for 7 days by resazurin assay; format: functional; settings: variant bovis BCG, 168 h, time 7 day
Endpoint Name: MIC (µg/mL)
Answers are plain numbers, in µg/mL.

Fill in MIC for each of the 4 compounds listed.
1. CCOC(=O)NC(=O)c1ccsc1NC(=O)c1ccc(C(=O)N2CCCCC2)cc1
2. COC(=O)NC(=O)c1ccsc1NC(=O)c1ccc(C(=O)N2CCCCC2)c(F)c1
3. CCOC(=O)NC(=O)c1ccsc1NC(=O)c1ccc(C(=O)N2CCCCC2)s1
4. COC(=O)NC(=O)c1ccsc1NC(=O)c1ccc(C(=O)N2CCCCC2)cc1

1. 0.32
2. 0.25
3. 0.56
4. 1.52

Look at this compound and give its reported MIC. O=C(Nc1sccc1C(=O)Nc1nccc(C(F)(F)F)n1)c1ccc(C(=O)N2CCCCC2)cc1
1.6
